# System tested: T1, S90-phosphorylated GST-PCK1 (human, UniProt P35558 1-622, phosphoserine at 90; biotin (G-MM-IGT Biotinylation kit))
# T1 chain: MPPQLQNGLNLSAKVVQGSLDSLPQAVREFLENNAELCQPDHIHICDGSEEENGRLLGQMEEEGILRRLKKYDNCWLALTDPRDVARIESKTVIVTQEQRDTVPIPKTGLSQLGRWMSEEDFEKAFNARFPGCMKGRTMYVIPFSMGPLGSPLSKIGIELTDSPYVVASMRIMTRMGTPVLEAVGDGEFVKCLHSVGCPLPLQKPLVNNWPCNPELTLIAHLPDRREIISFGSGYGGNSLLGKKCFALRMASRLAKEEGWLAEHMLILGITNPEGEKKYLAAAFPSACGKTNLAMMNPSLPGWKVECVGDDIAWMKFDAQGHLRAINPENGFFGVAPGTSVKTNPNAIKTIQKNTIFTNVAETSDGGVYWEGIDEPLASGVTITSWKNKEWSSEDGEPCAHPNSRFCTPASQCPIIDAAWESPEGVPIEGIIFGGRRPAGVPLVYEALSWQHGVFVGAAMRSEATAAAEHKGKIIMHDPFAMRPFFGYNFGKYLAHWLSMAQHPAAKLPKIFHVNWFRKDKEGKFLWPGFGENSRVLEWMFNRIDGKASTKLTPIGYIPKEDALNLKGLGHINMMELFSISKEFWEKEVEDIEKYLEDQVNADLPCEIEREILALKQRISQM
# Assay details: BLI; phosphorylated S90
Readout kind: Kd
Give your result as the value with the unit written after it.

Briefly, Kd measured for LYPCIDSHLGEPHKFKRE [Insig1/2 loop 1 peptide (143-LYPCIDSHLGEPHKFKRE-160)] : 10.5 µM
